Experiment: Pharmacokinetic study in rats after single oral administration of S. officinalis extract (UHPLC-MS/MS of plasma)
Format: in vivo, Sprague-Dawley rats
Settings: male, Sprague-Dawley; rat plasma, single oral dose of S. officinalis extract 0.015 g/kg, n = 12, mean ± SD
Param threshold (1000 ng·h/mL) applies to AUC(0-inf); output true when value >= threshold, false when value < threshold.

Prompt line: Is the recorded value of AUC(0-inf) equal to or greater than 1000 ng·h/mL for this compound? CC1CCC2(C(=O)OC3OC(CO)C(O)C(O)C3O)CCC3(C)C(=CCC4C5(C)CCC(O)C(C)(C)C5CCC43C)C2C1(C)O (stereo not drawn)
Response line: true

Prompt line: Is the recorded value of AUC(0-inf) equal to or greater than 1000 ng·h/mL for this compound? CC1CCC2(C(=O)O)CCC3(C)C(=CCC4C5(C)C(O)C(O)C(O)C(C)(C)C5CCC43C)C2C1(C)O (stereo not drawn) [V, 1β-hydroxyeuscaphic acid]
Response line: false

Prompt line: Is the recorded value of AUC(0-inf) equal to or greater than 1000 ng·h/mL for this compound? C[C@@H]1CC[C@]2(C(=O)O[C@@H]3O[C@H](CO)[C@@H](O)[C@H](O)[C@H]3O)CC[C@]3(C)C(=CC[C@@H]4[C@@]5(C)CC[C@H](O[C@@H]6OC[C@H](O)[C@H](O)[C@H]6O)C(C)(C)[C@@H]5CC[C@]43C)[C@@H]2[C@]1(C)O [I, ziyuglycoside I]
Response line: true

Prompt line: Is the recorded value of AUC(0-inf) equal to or greater than 1000 ng·h/mL for this compound? CC1=C2C3=CCC4C5(C)CCC(OC6OCC(O)C(O)C6O)C(C)(C)C5CCC4(C)C3(C)CCC2(C(=O)OC2OC(CO)C(O)C(O)C2O)CCC1C (stereo not drawn)
Response line: true

Prompt line: Is the recorded value of AUC(0-inf) equal to or greater than 1000 ng·h/mL for this compound? "C[C@@H]1CC[C@]2(C(=O)O[C@@H]3O[C@H](CO)[C@@H](O)[C@H](O)[C@H]3O)CC[C@]3(C)C(=CC[C@@H]4[C@@]5(C)C[C@@H](O)[C@H](O)C(C)(C)[C@@H]5CC[C@]43C)[C@@H]2[C@]1(C)O"
Response line: true

Prompt line: Is the recorded value of AUC(0-inf) equal to or greater than 1000 ng·h/mL for this compound? C=C1[C@H]2C3=CC[C@@H]4[C@@]5(C)C[C@@H](O)[C@@H](O)C(C)(C)[C@@H]5CC[C@@]4(C)[C@]3(C)CC[C@@]2(C(=O)O[C@@H]2O[C@H](CO)[C@@H](O)[C@H](O)[C@H]2O)CC[C@H]1C [VI, alpinoside]
Response line: true

---

Would you mind telling me the reported Stability Three Freeze-Thaw of each entry?
Assay: Stability of analytes in rat plasma under various storage conditions
Type: in vitro ADME
Conditions: rat plasma, three freeze–thaw cycles at −20 °C, high QC spiked concentration
Record the value in % RE, omitting the unit from your answer.

Prompt line: Consider the molecule CC1=C2C3=CCC4C5(C)CCC(OC6OCC(O)C(O)C6O)C(C)(C)C5CCC4(C)C3(C)CCC2(C(=O)OC2OC(CO)C(O)C(O)C2O)CCC1C (centres unmarked) [III] and give its measured Stability Three Freeze-Thaw.
Response line: −3.38

Prompt line: Consider the molecule C[C@@H]1CC[C@]2(C(=O)O[C@@H]3O[C@H](CO)[C@@H](O)[C@H](O)[C@H]3O)CC[C@]3(C)C(=CC[C@@H]4[C@@]5(C)CC[C@H](O[C@@H]6OC[C@H](O)[C@H](O)[C@H]6O)C(C)(C)[C@@H]5CC[C@]43C)[C@@H]2[C@]1(C)O [I, ziyuglycoside I] and give its measured Stability Three Freeze-Thaw.
Response line: 2.51
